# Tested on: P12-Ichikawa
# Assay Protocol: cell viability relative to DMSO control; higher = less cytotoxic
# Conditions Used: HPLM + 10% dialyzed FBS; 48 h; 0.569 µM
I'd be grateful if you could share measured cell viability for these entries.
Please reply with the bare figure in % and do not write the unit itself.

Measured cell viability, CCOc1ccc(Nc2nc(-c3c(C)nc4ccccn34)cs2)cc1 : 26.3

// O=C(NC[C@H](O)CN1CCc2ccccc2C1)c1cc(NC2COC2)ncn1 : cell viability value = 83.6

Entry COc1cc(C)c(Sc2cnc(NC(=O)c3ccc(CNC(C)C(C)(C)C)cc3)s2)cc1C(=O)N1CCN(C(C)=O)CC1 (centres undefined) ; cell viability = 115

Looking up CC(=O)C\1=C(/C)C2=CN=C(NC3=CC=C(C=N3)N4CCNCC4)N=C2N(C5CCCC5)C1=O , I found its cell viability recorded as 107

Looking up CC(C)Nc1cc(C(F)(F)F)cc2nc(NC(=O)c3cccnc3)nn12 , I found its cell viability recorded as 108

Consider CC(=O)Nc1ccc([C@H](C)C(=O)Nc2ncc(C(C)C)s2)cc1 . Its measured cell viability is 96.7

Form: compound = Cc1cccc(-c2nn(C(=S)Nc3ccccc3)cc2-c2ccnc3ccccc23)n1 ; cell viability = 113

Query OC[C@H]1O[C@H]([C@@H](F)[C@@H]1O)N2\C=C/C(=O)NC2=O yields cell viability of 114

For record C1CCC(C(CC2CCCCN2)C2CCCCC2)CC1 (centres undefined) the listed cell viability is 129
